# assay-procedure: yeast display, Sf9 membrane polyspecificity reagent, FACS + sequencing; frameworks hold sequencing errors
experimental-endpoint: polyreactivity (PSR sort gate)

QVQLVESGGGLVQAGGSLRLSCAASGRIFNKYVMGWYRQAPGKERELVAAISGRGGSTYYADYVKGRFTISRDNAKNTVYLQMNSLKPEDTAVYYCAARYGYYTSDYKYYDWGQGTQVTVSS; high polyreactivity
QVQLVESGGGLVQAGGSLRLSCAASGRIFRYYAMGWYRQAPGKEREFVAAISSNTGTGTYYADSVKGRFTISRDNAKNTVYLQMNSLKPEDTAVYYCNAKYKYRGYYWGQGTQVTVSS; high polyreactivity

###

# assay-procedure: yeast display, Sf9 membrane polyspecificity reagent, FACS + sequencing; frameworks hold sequencing errors
experimental-endpoint: polyreactivity (PSR sort gate)

// below: answered sequences
QVQLVESGGGLVQAGGRLRLSCAASGRTFRRYAMGWYRPAPGTERELVAAISWSGGSTYYADSVKGRFTISRDNAKNSVYLQMNSLKPEDTAVYYCGAETRYGYGYWGQGTQVTVSS; high polyreactivity
QVQLVESGGGLVQAGGSLRLSCAASGSTFSSYVMGWYRKAPVKERELVAAISSIGGSTYFADSVKGRFTISRDNAKNTVYLQMNSLKPEDTAVYFCAAEPPGSTYEGGYWGQGTQVTVSS; low polyreactivity
QVQLVESGGGLVQAGGSLRLSCAASGRIFYNYAMGWYRQAPGKERELVAAISSSGGSTYYADSVKGRFTISRDNAKNTVYLQMNSLKPEDTAVYYCAVRKQYSGRYYRAYDYWGQGTQVTVSS; high polyreactivity
QVQLVESCGGLVQAGGSLRLSCAASGRTFYFYAMGWYRQAPGKERELVAAISSTGGSTYYADSVKGRFTISRDNAKNTVYIQMNSLKPEDTAVYYCAARKSPRGRGEFYWGQGTQVTVSS; high polyreactivity
QVQLVESGGGLVQAGGSLRLSCAASGFIFSWYAMGWYRQAPGKERELVAAISHDGGSTYYADSVKGRFTISRDNAKNTVYLQMNSLKAEDTAVYYCAAPLRALSQRMGYWGQGTQVTVSS; high polyreactivity
QDQLVESGGGLVQAGGSLRLSCAASGSISYYAMGWYRQAPGKERELVAAISSSGGSTYYADSVKGRFTISRDNAKNTVYLQMNSLKPEDTAVYYCAARYYGFPSKYDYWGQGTQVTVSS; high polyreactivity
QVQLVESGRGLVQAGGSLRLSCAASGFTFGYYAMGWYRQAPGKERELVASISRSGGSTNYADSVKGRFTISRDNAKNTVYLQMNSLKPEDTAVYYCNKRSYWYQGRFDYWGQGTQVTVSS; high polyreactivity
QVQLVESGGGLVQAGGSLRLSCAASGFTFAANAMGWYRQAPGKERELVAAISSDSTYADSVKGRFTISRDNAKNTVYLQMNSLKPEDTAVYYCAKDRYIVNSPGLDYWGQGTQVTVSS; low polyreactivity

Respectfully, I request polyreactivity (PSR sort gate) for each entry included below.
1. QVQLVESGGGLVQAGGSLRLSCAASGSLFSWYTKGWYRQAPGKERELVAAISRSGGRTYYADSVKGRFTISRDNAKNTVYLQMNSLKPEDTAVYSCAARVYSYYGSRGQRYDYWGQGTQVTVSS
2. QVQLVQSGGGLVQAGASLRLSCAASGSTFWKYAMGWYRQAPGQERELVASIRSGGSTYYADSVKGRFTISRDNAKNTVYLQMNSLIPEDTAVYYCAAVTHGRYDWVQGTQVTVSS
3. QVHLVESGGGLVQAGGSLRLSCAASGSTFIYNTMGWYRQAPGKERELVATITDSSDSTNYADSVKGRFTITRDNAKNTVYLQMNSLKPDDTAVYYCAADGEVDIATYPSQITDYDYWGQGTQVTVSS

Result string:
["high polyreactivity", "high polyreactivity", "low polyreactivity"]
